# assayInfo: Plasma concentration in Sprague-Dawley rat at 40 mg/kg administered via oral gavage measured at 4 hrs by LC-MS/MS method
# Assay type: ADME, organism-based
measuredAttribute: concentration at 4 h (ng/mL)
Reply numerically in ng/mL, unit not repeated.

Ask | Any idea what concentration at 4 h was measured for `Cc1cc2c([nH]c3ccc(C(C)(C)C)cc32)c2c1OC(C)(C)C=C2` ?
Reply | 1110

* * *

# assayInfo: Drug uptake in Sprague-Dawley rat brain at 40 mg/kg administered via oral gavage measured at 1 hr by LC-MS/MS method
# Assay type: ADME, organism-based
# studyConditions: read-out: Drug uptake
measuredAttribute: concentration at 1 h (ng/g)
Write the answer as a number in ng/g, unit excluded.

Ask | Item under review: `Cc1cc2c([nH]c3ccc(C(C)(C)C)cc32)c2c1OC(C)(C)C=C2` . Reported concentration at 1 h?
Reply | 129

* * *

# assayInfo: Tmax in Sprague-Dawley rat brain at 40 mg/kg administered via oral gavage by LC-MS/MS method
# Assay type: ADME, organism-based
measuredAttribute: Tmax (h)
Kindly answer with a numeric value in h, unit omitted.

Ask | Any idea what Tmax was measured for `Cc1cc2c([nH]c3ccc(C(C)(C)C)cc32)c2c1OC(C)(C)C=C2` ?
Reply | 8

* * *

# assayInfo: Plasma concentration in Sprague-Dawley rat at 40 mg/kg administered via oral gavage measured at 8 hrs by LC-MS/MS method
# Assay type: ADME, organism-based
measuredAttribute: concentration at 8 h (ng/mL)
Express the result in ng/mL but write the number alone.

Ask | Need concentration at 8 h, item `Cc1cc2c([nH]c3ccc(C(C)(C)C)cc32)c2c1OC(C)(C)C=C2`
Reply | 1140

* * *

# assayInfo: Drug uptake in Sprague-Dawley rat brain at 40 mg/kg administered via oral gavage measured at 0.5 hrs by LC-MS/MS method
# Type: ADME, organism-based
# studyConditions: read-out: Drug uptake
measuredAttribute: concentration at 0.5 h (ng/g)
Answer format: numeric, ng/g implied, no suffix.

Ask | I am curious: what concentration at 0.5 h value has been reported for `Cc1cc2c([nH]c3ccc(C(C)(C)C)cc32)c2c1OC(C)(C)C=C2` ?
Reply | 38.5

* * *

# assayInfo: Drug uptake in Sprague-Dawley rat brain at 40 mg/kg administered via oral gavage measured at 12 hrs by LC-MS/MS method
# Type: ADME, organism-based
# studyConditions: read-out: Drug uptake
measuredAttribute: concentration at 12 h (ng/g)
// units = ng/g; emit number, no label

Ask | Need concentration at 12 h of `Cc1cc2c([nH]c3ccc(C(C)(C)C)cc32)c2c1OC(C)(C)C=C2` , thanks.
Reply | 5330

* * *

# assayInfo: Plasma concentration in Sprague-Dawley rat at 40 mg/kg administered via oral gavage measured at 6 hrs by LC-MS/MS method
# Type: ADME, organism-based
measuredAttribute: concentration at 6 h (ng/mL)
Report the figure in ng/mL without appending any unit label.

Ask | Please report the recorded concentration at 6 h for `Cc1cc2c([nH]c3ccc(C(C)(C)C)cc32)c2c1OC(C)(C)C=C2` .
Reply | 1510

* * *

# assayInfo: Plasma concentration in Sprague-Dawley rat at 40 mg/kg administered via oral gavage measured at 12 hrs by LC-MS/MS method
# Format: ADME, organism-based
measuredAttribute: concentration at 12 h
Remember to follow the number with its unit.

Ask | Name the reported concentration at 12 h value associated with the compound `Cc1cc2c([nH]c3ccc(C(C)(C)C)cc32)c2c1OC(C)(C)C=C2`
Reply | 1040 ng/mL

* * *

# assayInfo: Plasma concentration in Sprague-Dawley rat at 40 mg/kg administered via oral gavage measured at 24 hrs by LC-MS/MS method
# Assay type: ADME, organism-based
measuredAttribute: concentration at 24 h (ng/mL)
Express it in ng/mL; write the number only.

Ask | Reported concentration at 24 h, compound `Cc1cc2c([nH]c3ccc(C(C)(C)C)cc32)c2c1OC(C)(C)C=C2` : ____
Reply | 19.6

* * *

# assayInfo: Plasma concentration in Sprague-Dawley rat at 40 mg/kg administered via oral gavage measured at 2 hrs by LC-MS/MS method
# Format: ADME, organism-based
measuredAttribute: concentration at 2 h (ng/mL)
Supply the numeric figure in ng/mL, leaving out any unit text.

Ask | // lookup concentration at 2 h for `Cc1cc2c([nH]c3ccc(C(C)(C)C)cc32)c2c1OC(C)(C)C=C2`
Reply | 871

* * *

# assayInfo: Drug uptake in Sprague-Dawley rat brain at 40 mg/kg administered via oral gavage measured at 6 hrs by LC-MS/MS method
# Type: ADME, organism-based
# studyConditions: read-out: Drug uptake
measuredAttribute: concentration at 6 h (ng/g)
Lab book: enter the figure in ng/g, no units written.

Ask | # lookup: concentration at 6 h of `Cc1cc2c([nH]c3ccc(C(C)(C)C)cc32)c2c1OC(C)(C)C=C2`
Reply | 4720

* * *

# assayInfo: Plasma concentration in Sprague-Dawley rat at 40 mg/kg administered via oral gavage measured at 0.25 hrs by LC-MS/MS method
# Format: ADME, organism-based
measuredAttribute: concentration at 0.25 h

Ask | Record request: concentration at 0.25 h value, item `Cc1cc2c([nH]c3ccc(C(C)(C)C)cc32)c2c1OC(C)(C)C=C2`
Reply | 264 ng/mL

* * *

# assayInfo: Plasma concentration in Sprague-Dawley rat at 40 mg/kg administered via oral gavage measured at 0.5 hrs by LC-MS/MS method
# Type: ADME, organism-based
measuredAttribute: concentration at 0.5 h (ng/mL)
Give the number; ng/mL is assumed, so skip it.

Ask | Quick one: concentration at 0.5 h of `Cc1cc2c([nH]c3ccc(C(C)(C)C)cc32)c2c1OC(C)(C)C=C2` ?
Reply | 157

* * *

# assayInfo: Drug uptake in Sprague-Dawley rat brain at 40 mg/kg administered via oral gavage measured at 24 hrs by LC-MS/MS method
# Assay type: ADME, organism-based
# studyConditions: read-out: Drug uptake
measuredAttribute: concentration at 24 h (ng/g)
Value expressed in ng/g; do not type the unit.

Ask | Any idea what its concentration at 24 h is? The compound is `Cc1cc2c([nH]c3ccc(C(C)(C)C)cc32)c2c1OC(C)(C)C=C2`
Reply | 472

* * *

# assayInfo: AUC (0 to t) in Sprague-Dawley rat plasma at 40 mg/kg administered via oral gavage by LC-MS/MS method
# Assay type: ADME, organism-based
measuredAttribute: AUC(0-t) (ng·h/mL)
Please give a number only; it is taken to be in ng·h/mL.

Ask | Need AUC(0-t), item `Cc1cc2c([nH]c3ccc(C(C)(C)C)cc32)c2c1OC(C)(C)C=C2`
Reply | 18800

* * *

# assayInfo: Drug uptake in Sprague-Dawley rat brain at 40 mg/kg administered via oral gavage measured at 8 hrs by LC-MS/MS method
# Format: ADME, organism-based
# studyConditions: read-out: Drug uptake
measuredAttribute: concentration at 8 h (ng/g)
Numeric answer only, unit ng/g assumed.

Ask | Please report the recorded concentration at 8 h for `Cc1cc2c([nH]c3ccc(C(C)(C)C)cc32)c2c1OC(C)(C)C=C2` .
Reply | 5890
